Where do these numbers come from? They come from paper PMC10295897.

tested on: Oral Tumor Cells (SCC9, SCC25, SCC4); assay: MTT assay, average over oral tumor cells; assay type: cell-based, human; conditions: IC50 of normal primary fibroblasts / average IC50 of tumor cells
reportedEndpoint: Average S.I.

[[record]]
compound = "N.N.O=C([O-])C1(C(=O)[O-])CCC1.[Pt+2] [Carboplatin, carboplatin, reference compound]"
reportedendpoint = "Average S.I."
recordedmeasurement = 2.03

[[record]]
compound = "Cc1cccc(C)c1-n1cc(/C=C/C(=O)c2ccccc2N)nn1"
reportedendpoint = "Average S.I."
recordedmeasurement = 6.51

[[record]]
compound = "Nc1ccccc1C(=O)/C=C/c1cn(-c2ccccc2)nn1"
reportedendpoint = "Average S.I."
recordedmeasurement = 2.82

[[record]]
compound = "COc1cccc2c1C(=O)c1c(O)c3c(c(O)c1C2=O)C[C@@](O)(C(=O)CO)C[C@@H]3O[C@H]1C[C@H](N)[C@H](O)[C@H](C)O1 [Doxorubicin, doxorubicin, reference compound]"
reportedendpoint = "Average S.I."
recordedmeasurement = 2.34


----------
reportedEndpoint: melting point

[[record]]
molecule = "Nc1ccccc1C(=O)/C=C/c1cnn(-c2ccccc2)n1 [1a]"
reportedendpoint = "melting point"
recordedmeasurement = "128 to 130 °C"

[[record]]
molecule = "CCOC(=O)c1ccc(-n2cc(/C=C/C(=O)c3ccccc3N)nn2)cc1 [1e]"
reportedendpoint = "melting point"
recordedmeasurement = "220 to 222 °C"

[[record]]
molecule = "Nc1ccccc1C(=O)/C=C/c1cn(-c2ccccc2)nn1 [1b]"
reportedendpoint = "melting point"
recordedmeasurement = "183 to 185 °C"

[[record]]
molecule = "COc1ccc(-n2cc(/C=C/C(=O)c3ccccc3N)nn2)cc1 [1c]"
reportedendpoint = "melting point"
recordedmeasurement = "174 to 176 °C"

[[record]]
molecule = "Nc1ccccc1C(=O)/C=C/c1cn(-c2ccc([N+](=O)[O-])cc2)nn1 [1d]"
reportedendpoint = "melting point"
recordedmeasurement = "253 to 255 °C"


----------
tested on: Primary Gingival Fibroblast (HGF); assay: MTT cell viability assay, primary normal gingival fibroblasts; format: cell-based, human; conditions: 48 h
reportedEndpoint: IC50 (µM)

[[record]]
compound = "N.N.O=C([O-])C1(C(=O)[O-])CCC1.[Pt+2] [Carboplatin, carboplatin, reference compound]"
readoutunit = "µM"
recordedmeasurement = 335

[[record]]
compound = "COc1ccc(C2=N[C@@H](c3ccc(Cl)cc3)[C@@H](c3ccc(Cl)cc3)N2C(=O)N2CCNC(=O)C2)c(OC(C)C)c1 [nutlin-3a, reference compound]"
readoutunit = "µM"
recordedmeasurement = 49.1


----------
assay: Solubility observed during in vitro testing; format: physicochemical; conditions: in vitro cytotoxicity testing
reportedEndpoint: solubility (in words)

[[record]]
molecule = "Nc1ccccc1C(=O)/C=C/c1cn(-c2ccccc2)nn1 [1b]"
reportedendpoint = "solubility (in words)"
recordedmeasurement = "highly soluble"

[[record]]
molecule = "Cc1cccc(C)c1-n1cc(/C=C/C(=O)c2ccccc2N)nn1 [1f]"
reportedendpoint = "solubility (in words)"
recordedmeasurement = "highly soluble"


----------
Test system: HEP2G (hepatocarcinoma)
Experiment: MTT cell viability assay, HEP2G
Format: cell-based
Conditions: 48 h
Experimental: The viability of SCC cell lines, HT-29, HCT-116, HEP2G and primary human fibroblast cells was evaluated using the MTT assay as in [26]. Briefly, the cells were grown in duplicates in 96-well plates (5 × 10^3 cells/well) until confluence. Then, the medium was removed, fresh medium was added, and the cells were returned to the incubator in the presence of different compounds. DMSO at the same concentrations was used as a 100% cell viability control. […]
reportedEndpoint: IC50

[[record]]
smiles = "Cc1cccc(C)c1-n1cc(/C=C/C(=O)c2ccccc2N)nn1"
reportedendpoint = "IC50"
recordedmeasurement = "39.4 µM"


----------
Experiment: Hemolysis assay
Type: cell-based
Details: human erythrocytes; vs Triton X-100 = 100%; 300 µM (method) / 500 µM (Figure 2)
Description: To determine the surfactant power of substances in biological membranes, a hemolysis assay was performed using human blood approved by the Research Ethics Committee of Universidade Federal Fluminense (CAAE: 43134721.4.0000.5626). Erythrocytes were collected by centrifugation at 1500 rpm for 15 min, washed with PBS (phosphate-buffered saline) supplemented with 10 mM glucose, and counted in an automatic cell counter (Thermo Fisher, Waltham, MA, USA). […]
reportedEndpoint: hemolysis at 300 µM

[[record]]
compound = "Cc1cccc(C)c1-n1cc(/C=C/C(=O)c2ccccc2N)nn1 [1f]"
reportedendpoint = "hemolysis at 300 µM"
recordedmeasurement = "< 2%"


----------
tested on: Oral Tumor Cells (SCC9, SCC25, SCC4); assay: MTT assay, average over oral tumor cells; format: cell-based, human; settings: mean of SCC9, SCC25, SCC4
reportedEndpoint: IC50 (µM)

[[record]]
compound = "N.N.O=C([O-])C1(C(=O)[O-])CCC1.[Pt+2] [Carboplatin, carboplatin, reference compound]"
assaytarget = "Oral Tumor Cells (SCC9, SCC25, SCC4)"
reportedendpoint = "IC50"
recordedmeasurement = 165


----------
Test system: SCC9 cells
Test: MTT cell viability assay, SCC9 oral cancer cells
Format: cell-based, human
Settings: Homo sapiens, SCC-9, 48 h, 48 h, MTT; read-out: SCC9 IC50
Description: Human SCC-4, SCC-9, and SCC-25 cells derived from a human oral tongue SCC (squamous cell carcinoma) were obtained from the ATCC (CRL-1624, CRL-1629, and CRL-1628, respectively) and maintained in 1:1 DMEM/F12 (Dulbecco’s modified Eagle medium and Ham’s F12 medium; Gibco (Thermo Fisher, Waltham, MA, USA)) supplemented with 10% (v/v) FBS (fetal bovine serum; Invitrogen, Thermo Fisher, Waltham, MA, USA) and 400 ng/mL hydrocortisone (Sigma-Aldrich Co., St. Louis, MO, USA). […]
pIC50: −log10 of the molar value.
reportedEndpoint: pIC50

[[record]]
molecule = "COc1cccc2c1C(=O)c1c(O)c3c(c(O)c1C2=O)C[C@@](O)(C(=O)CO)C[C@@H]3O[C@H]1C[C@H](N)[C@H](O)[C@H](C)O1 [Doxorubicin, doxorubicin, reference compound]"
recordedmeasurement = 5.52

[[record]]
molecule = "Cc1cccc(C)c1-n1cc(/C=C/C(=O)c2ccccc2N)nn1"
recordedmeasurement = 5.41

[[record]]
molecule = "Nc1ccccc1C(=O)/C=C/c1cn(-c2ccccc2)nn1"
recordedmeasurement = 4.90

